target_entity: T1, Clostridium difficile toxin A (TcdA) (Clostridium difficile, UniProt P16154 1-2710)
T1 construct: mature; also called full-length TcdA
protocol_description: SPR (Biacore 3000), VHH over immobilized TcdA, 1:1 fit
Entries annotated with measured kon
Just the number please, in M⁻¹ s⁻¹, no unit attached.

Example entries begin here.
A26.8-T56R, T103R (VHH, not shown: small tags and cut ends, also called lead double mutant; best double mutant) VHH: QVKLEESGGGLVQAGGSLRLSCAASERTFSRYPVAWFRQAPGAEREFVAVISSTGRSTYYADSVKGRFTISRDNAKVTVYLQMNNLKREDTAVYFCAVNSQRRRLQDPNEYDYWGQGTQVTVSS : 8.33e+06
A26.8-T56R, T103M (VHH, not shown: small tags and cut ends) VHH: QVKLEESGGGLVQAGGSLRLSCAASERTFSRYPVAWFRQAPGAEREFVAVISSTGRSTYYADSVKGRFTISRDNAKVTVYLQMNNLKREDTAVYFCAVNSQRMRLQDPNEYDYWGQGTQVTVSS : 6.42e+06
A26.8-T103M (VHH, not shown: small tags and cut ends) VHH: QVKLEESGGGLVQAGGSLRLSCAASERTFSRYPVAWFRQAPGAEREFVAVISSTGTSTYYADSVKGRFTISRDNAKVTVYLQMNNLKREDTAVYFCAVNSQRMRLQDPNEYDYWGQGTQVTVSS : 1.77e+06

Kindly review the next binder as well.
Prompt: Indicate its recorded kon; the binder in question is A26.8 VHH mutant D107N (VHH, not shown: small tags and cut ends) VHH: QVKLEESGGGLVQAGGSLRLSCAASERTFSRYPVAWFRQAPGAEREFVAVISSTGTSTYYADSVKGRFTISRDNAKVTVYLQMNNLKREDTAVYFCAVNSQRTRLQNPNEYDYWGQGTQVTVSS
Completion: 1.92e+06
